# Test system: U251 CNS
# measurementProtocol: NCI tumour cell line growth inhibition, 48 h
Quick list: TGI per entry.

compound	resultValue
COc1cc(C2c3cc4c(cc3OC3(OC)COC(=O)C23)OCO4)cc(OC)c1OC(C)=O (stereo unspecified)	> 100 µM

Look up and state reported TGI for `CCOC(=O)CN1C(=O)c2ccc(NC(=O)C(=O)O)cc2S1(=O)=O`
> 100 µM

Look up and state reported TGI for `C/C(Cc1ccccc1)=N\NC(N)=S`
> 100 µM

Look up and state reported TGI for `COc1ccc(P2(=S)OC(C)(C)C(C)(C)O2)cc1`
> 100 µM

Look up and state reported TGI for COc1cc(NS(C)(=O)=O)ccc1Nc1c2ccccc2nc2c1[nH]c1ccc(NC3OC(CO)C(O)C(O)C3O)cc12 (stereo unspecified)
0.332 µM

Look up and state reported TGI for COC(=O)C1=C(O)C(C(=O)OC)[C@]2(O)[C@H](C(=O)OC)[C@H]1C[C@@H](c1ccc(C(F)(F)F)cc1)[C@H]2C(=O)OC (stereo partly specified)
14.9 µM

Look up and state reported TGI for COC(=O)C(Cc1c[nH]c2ccccc12)NP(=O)(O)OCC1OC(n2cc(I)c(=O)[nH]c2=O)CC1O (stereo unspecified)
> 100 µM

Look up and state reported TGI for `O=C(Nc1ccncc1)C(=O)c1cn(S(=O)(=O)c2ccc(F)cc2)c2ccccc12`
> 100 µM

###

# Test system: U251 CNS
# measurementProtocol: NCI tumour cell line growth inhibition, 48 h
measurementType: TGI

Guide cases for TGI, answers given:
compound	TGI
O=C1C(c2c(O)[nH]c3ccc(F)cc23)=Nc2ccccc21	42.7 µM
CC(=O)c1c(C)n([O-])c2cc(Cl)c(Cl)cc2[n+]1=O	> 100 µM
Cc1ccc(NC(=O)CC2CC2)cc1-c1ccc(C(=O)NCC2CC2)cc1	> 25 µM
CCOc1ccccc1NC(=O)C(=O)CC(=O)c1sc(Nc2nnc(-c3ccc(Cl)c(Cl)c3)o2)nc1C	41.4 µM
C[C@H](CCC(=O)O)[C@H]1CC[C@H]2[C@@H]3CC[C@@H]4C[C@H](O)CC[C@]4(C)[C@H]3C[C@H](O)[C@]12C	> 100 µM
O=c1cc(-c2cccc3ccccc23)[nH]c2ncccc12	> 100 µM

Under U251 CNS, report TGI for CN1C(=O)N(C)C2C1NN=c1s/c(=C\c3ccc(Cl)cc3Cl)c(=O)n12 (stereo not given)
> 100 µM

Under U251 CNS, report TGI for `Fc1cc(-c2cc(-c3ccccc3)no2)c(Cl)cc1Cl`
> 21.7 µM

Under U251 CNS, report TGI for CCSc1ncnc2c1ncn2C1OC(CO)C(O)C1O (stereo not given)
> 100 µM

###

Quick list: TGI per entry.
# Test system: HS 578T breast
# measurementProtocol: NCI tumour cell line growth inhibition, 48 h

molecule	TGI
CCC(C)OC(=O)/C(Br)=C1/OC(=O)c2ccccc2-c2ccccc21 (stereo not given)	> 100 µM

Look up and state reported TGI for `CCOC(=O)Nc1ccc(C)c(NC(=O)OCC)c1`
> 100 µM

Look up and state reported TGI for `COc1ccc2cc(/C=N/NC(=O)Nc3ccccc3)ccc2c1`
> 100 µM

###

# Tested on: IGROV1 ovarian
# measurementProtocol: NCI tumour cell line growth inhibition, 48 h
measurementType: TGI

Look up and state reported TGI for `COc1cc(-n2cc(-c3ccc(F)cc3)[nH]c2=O)cc(OC)c1OC`
> 100 µM

Look up and state reported TGI for `CCOc1ccc(NC(=O)CC#N)cc1`
> 100 µM

Look up and state reported TGI for COc1cc(NS(C)(=O)=O)ccc1Nc1c2ccccc2nc2c1[nH]c1ccc(NC3OC(CO)C(O)C(O)C3O)cc12 (stereo not given)
3.47 µM

Look up and state reported TGI for `Cc1cc2oc(=N)c(C#N)c(C)c2cc1C`
> 100 µM

Look up and state reported TGI for `COc1cc2c(cc1OCCCNC(=O)c1cccc3c(=O)c4ccccc4[nH]c13)N=C[C@@H]1CCCN1C2=O`
> 33.5 µM

###

Quick list: TGI per entry.
# Test system: IGROV1 ovarian
# measurementProtocol: NCI tumour cell line growth inhibition, 48 h

Guide cases for TGI, answers given:
compound	resultValue
CC(C)Oc1ccc2cc(-c3nn(CC4CCNCC4)c4ncnc(N)c34)ccc2c1	24.8 µM
Cc1ncc(C(=O)Nc2ccc(CN3CCN(C)CC3)c(C(F)(F)F)c2)cc1C#Cc1cnc(N)c2ccncc12	1.42 µM
CCC(/C=C/C1OC(=O)C=CC1C)=C\C(C)C/C=C/C(C)=C/C(C)C(=O)C(C)C(O)C(C)C/C(C)=C/C(=O)O (stereo unspecified)	16 µM

Under IGROV1 ovarian, report TGI for `N#C/C1=C(\N)CCSSSC1`
> 100 µM

Under IGROV1 ovarian, report TGI for C=C(Cl)C(Br)(CCl)CCC(Br)C(C)(C)Cl (stereo unspecified)
4.16 µM

Under IGROV1 ovarian, report TGI for `N#Cc1c(N)nc2n[nH]c(N)c2c1-c1ccc(Cl)cc1`
7.39 µM

###

# Tested on: NCI-H522 lung
# measurementProtocol: NCI tumour cell line growth inhibition, 48 h
Quick list: TGI per entry.

Guide cases for TGI, answers given:
compound	TGI
CN(C)CCCN1CCC2(CCC(C(C)(C)C)CC2)CC1	6.07 µM
Clc1ccc2[nH]cc(-c3nnnn3-c3ccccc3)c2c1	> 92.5 µM
Cn1c(=O)c2c(nc(Cc3ccccc3)n2CC(=O)O)n(C)c1=O	> 100 µM
Cc1cc(Cl)ccc1NC(=O)C(=O)Cc1nc2ccccc2o1	> 100 µM
CC1(C)N=C(N)N=C(N)N1c1ccc(CCc2ccccc2)cc1	33.9 µM
CC12CC(c3ccccc3O1)C(C(=O)Nc1ccc(Cl)cc1Cl)C(=O)N2 (stereo unspecified)	> 100 µM
O=C1Nc2ccccc2/C1=N\[O-].O=C1Nc2ccccc2/C1=N\[O-].[Cu+2]	> 100 µM
CC(O)C1(CNc2cc(Cl)nc(N)n2)CCC1 (stereo unspecified)	> 100 µM
O=C(Nc1nc(=S)c2c(ncn2CCOC(=O)c2ccccc2)[nH]1)c1ccccc1	68.1 µM
CC1c2c(Cl)nc3ccccc3c2Oc2c1c(Cl)nc1ccccc21	> 100 µM

Proceeding to the next compound to report its TGI.
Look up and state reported TGI for `CCCNC(=S)NNC(=O)CSc1nc(-c2ccccc2)c(-c2ccccc2)[nH]1`
78.1 µM

###

Quick list: TGI per entry.
# Tested on: NCI/ADR-RES ovarian
# measurementProtocol: NCI tumour cell line growth inhibition, 48 h

Guide cases for TGI, answers given:
molecule	assayTarget	measurementType	resultValue
CO/N=C(\COc1ccc2c(c1)oc(=O)c1cc(OC)ccc12)c1ccc(OC)cc1	NCI/ADR-RES ovarian	TGI	> 100 µM
O=C1/C(=C/c2cccc(Cl)c2Cl)N=C(c2ccccc2)N1C1CC1	NCI/ADR-RES ovarian	TGI	31.1 µM
CC(=O)Oc1ccc2c(C)cc(=O)oc2c1OC(C)=O	NCI/ADR-RES ovarian	TGI	78.6 µM
O=Cc1[nH]c(=O)[nH]c(=O)c1C(=O)O	NCI/ADR-RES ovarian	TGI	> 100 µM
CSc1nc(Nc2cccc(C(F)(F)F)c2)c2c(N)nn(C)c2n1	NCI/ADR-RES ovarian	TGI	> 100 µM

Proceeding to the next molecule to report its TGI.
Look up and state reported TGI for CCOC1OC(=O)c2cc3ccc4c(c3c(-c3ccc5c(c3)OCO5)c21)OCO4 (stereo unspecified)
> 74.6 µM

###

# Tested on: DU-145 prostate
# measurementProtocol: NCI tumour cell line growth inhibition, 48 h
Quick list: TGI per entry.

Guide cases for TGI, answers given:
compound	resultValue
Cc1c(N=Nc2ccc(Cl)cc2)c(-c2ccccc2)n(C2OC(CO)C(O)C(O)C2O)c(=S)c1C#N (configuration not stated)	39.4 µM
O=C1CCCC1CN1CCCC1 (configuration not stated)	> 66.4 µM
CC(=O)c1c(C)n([O-])c2cc(Cl)c(Cl)cc2[n+]1=O	> 100 µM
COc1c(OC[C@H](O)CN2CCOCC2)ccc2c3n(c(=NC(=O)c4cccnc4C)nc12)CCN3	> 50 µM
CC#CCOC(=O)c1ccccc1OC(C)=O	> 100 µM
COc1cc2c(C)cc(O)cc2c2cc(O)c(C)cc12	20.9 µM

Proceeding to the next compound to report its TGI.
Look up and state reported TGI for CCOC(=O)NC(Nc1ccc(S(=O)(=O)Nc2nc(C)cc(C)n2)cc1)(C(=O)OCC)C(F)(F)F (configuration not stated)
> 100 µM

###

Quick list: TGI per entry.
# Test system: PC-3 prostate
# measurementProtocol: NCI tumour cell line growth inhibition, 48 h
A number alone suffices; assume µM.

Look up and state reported TGI for `CN(C)CCCN1CCC2(CCC(C(C)(C)C)CC2)CC1`
10.8

Look up and state reported TGI for CC(C)C(=O)OCC1OC(n2c(Br)nc3c(=O)[nH]c(N)nc32)C(OC(=O)C(C)C)C1OC(=O)C(C)C (stereo not given)
62.9
